The reported measurements were obtained from patent US8178658B2.

# System: beet armyworm (BAW; Spodoptera exigua: Lepidoptera)
# Measurement Protocol: 96-well microtiter plate-based high throughput (HTS) diet bioassay on beet armyworm (BAW HTS)
# Type: in vivo
# Condition Parameters: Spodoptera exigua, 144 h, read-out: BAW HTS
Readout Kind: pest or weed control at 12 µg/well, 12 µg/well

CCO[C@@H]1[C@@H](OC)[C@H](C)O[C@@H](SC(=O)Nc2ccc(-c3cn(-c4ccc(OC(F)(F)F)cc4)cn3)cc2)[C@@H]1OC :: > 50%
CCO[C@@H]1[C@@H](OC)[C@H](C)O[C@@H](OC(=O)N(C(=O)CCC(=O)OC)c2ccc(-c3ncn(-c4ccc(OC(F)(F)C(F)(F)F)cc4)n3)cc2)[C@@H]1OC :: < 50%
CCO[C@@H]1[C@@H](OC)[C@H](C)O[C@@H](OC(=O)N(COC)c2ccc(-c3ncn(-c4ccc(OC(F)(F)F)cc4)n3)cc2)[C@@H]1OC :: > 50%

Exercise: Form field: reported pest or weed control at 12 µg/well, 12 µg/well of CO[C@@H]1[C@@H](OC)[C@H](C)O[C@H](OC(=O)Nc2ccc(-n3cnc(-c4ccc(C(F)(F)F)cc4)n3)cc2Cl)[C@@H]1OC
Solution: > 50%

Exercise: Now this one: CO[C@@H]1[C@@H](OC)[C@H](C)O[C@@H](OC(=O)Nc2ccc(-c3ccnc(-c4ccc(C(F)(F)F)cc4)n3)cc2)[C@@H]1OC
Solution: > 50%

Exercise: Now this one: CCCO[C@@H]1[C@@H](OC)[C@H](C)O[C@@H](OC(=O)N(CC)c2ccc(-c3ncn(-c4ccc(OC(F)(F)C(F)(F)F)cc4)n3)cc2)[C@@H]1OC
Solution: > 50%

----------
# System: beet armyworm (BAW; Spodoptera exigua: Lepidoptera)
# Measurement Protocol: 96-well microtiter plate-based high throughput (HTS) diet bioassay on beet armyworm (BAW HTS)
# Type: in vivo
# Condition Parameters: Spodoptera exigua, 144 h, read-out: BAW HTS
Collected pest or weed control at 12 µg/well, 12 µg/well values appear next to each entry.

CO[C@@H]1[C@@H](OC)[C@H](C)O[C@@H](OC(=S)Nc2ccc(-c3cn(-c4ccc(OC(F)(F)F)cc4)cn3)cc2)[C@@H]1OC :: < 50%
CCO[C@@H]1[C@@H](OC)[C@H](C)O[C@@H](OC(=O)Nc2ccc(-c3ncn(-c4ccc(OC(F)(F)C(F)(F)F)cc4)n3)cc2)[C@@H]1OC :: > 50%
CO[C@@H]1[C@@H](OC)[C@H](C)O[C@@H](OC(=O)Nc2ccc(-n3cnc(-c4ccc(C(F)(F)F)cc4)n3)cc2Cl)[C@@H]1OC :: > 50%
CCO[C@@H]1[C@@H](OC)[C@H](C)O[C@H](OC(=O)Nc2ccc(-c3ncn(-c4ccc(OC(F)(F)C(F)(F)F)cc4)n3)cc2)[C@@H]1OC :: > 50%
CCO[C@@H]1[C@@H](OC)[C@H](C)O[C@@H](OC(=S)Nc2ccc(-c3ncn(-c4ccc(OC(F)(F)C(F)(F)F)cc4)n3)cc2)[C@@H]1OC :: > 50%

Continue with the next compound.
Exercise: Form field: reported pest or weed control at 12 µg/well, 12 µg/well of COc1ccc(-c2nccc(-c3ccc(NC(=O)O[C@@H]4O[C@@H](C)[C@H](OC)[C@@H](OC)[C@H]4OC)cc3)n2)cc1
Solution: < 50%

----------
Collected pest or weed control at 12 µg/well, 12 µg/well values appear next to each entry.
# System: beet armyworm (BAW; Spodoptera exigua: Lepidoptera)
# Measurement Protocol: 96-well microtiter plate-based high throughput (HTS) diet bioassay on beet armyworm (BAW HTS)
# Format: in vivo
# Condition Parameters: Spodoptera exigua, 144 h, read-out: BAW HTS

// solved cases for pest or weed control at 12 µg/well, 12 µg/well follow
CCCO[C@@H]1[C@@H](OC)[C@H](C)O[C@@H](OC(=O)Nc2ccc(-c3ncn(-c4ccc(OC(F)(F)C(F)(F)F)cc4)n3)cc2)[C@@H]1OC :: < 50%
CCO[C@@H]1[C@@H](OC)[C@H](C)O[C@@H](OC(=O)N(COC)c2ccc(-c3ncn(-c4ccc(OC(F)(F)C(F)(F)F)cc4)n3)cc2)[C@@H]1OC :: < 50%
CCO[C@@H]1[C@@H](OC)[C@H](C)O[C@@H](OC(=O)N(C(C)=O)c2ccc(-c3ncn(-c4ccc(OC(F)(F)C(F)(F)F)cc4)n3)cc2)[C@@H]1OC :: > 50%
CCO[C@@H]1[C@@H](OC)[C@H](C)O[C@@H](OC(=O)N(C)c2ccc(-c3ncn(-c4ccc(OC(F)(F)F)cc4)n3)cc2)[C@@H]1OC :: < 50%
C=CCN(C(=O)O[C@@H]1O[C@@H](C)[C@H](OC)[C@@H](OCC)[C@H]1OC)c1ccc(-c2ncn(-c3ccc(OC(F)(F)C(F)(F)F)cc3)n2)cc1 :: > 50%

Exercise: Form field: reported pest or weed control at 12 µg/well, 12 µg/well of CCCO[C@@H]1[C@@H](OC)[C@H](C)O[C@@H](OC(=O)N(CO)c2ccc(-c3ncn(-c4ccc(OC(F)(F)C(F)(F)F)cc4)n3)cc2)[C@@H]1OC
Solution: < 50%

Exercise: Now this one: CCO[C@@H]1[C@@H](OC)[C@H](C)O[C@@H](OC(=O)N(C)c2ccc(-c3ncn(-c4ccc(OC(F)(F)C(F)(F)F)cc4)n3)cc2)[C@@H]1OC
Solution: < 50%

Exercise: Now this one: CO[C@@H]1[C@@H](OC)[C@H](C)O[C@@H](OC(=O)Nc2ccc(-c3ncn(-c4ccc(OC(F)(F)F)cc4)n3)cc2)[C@@H]1OC
Solution: > 50%
